src = patent US20230117324A1

Measured target: UniProtKB Q99685
Sequence (Q99685 1-303): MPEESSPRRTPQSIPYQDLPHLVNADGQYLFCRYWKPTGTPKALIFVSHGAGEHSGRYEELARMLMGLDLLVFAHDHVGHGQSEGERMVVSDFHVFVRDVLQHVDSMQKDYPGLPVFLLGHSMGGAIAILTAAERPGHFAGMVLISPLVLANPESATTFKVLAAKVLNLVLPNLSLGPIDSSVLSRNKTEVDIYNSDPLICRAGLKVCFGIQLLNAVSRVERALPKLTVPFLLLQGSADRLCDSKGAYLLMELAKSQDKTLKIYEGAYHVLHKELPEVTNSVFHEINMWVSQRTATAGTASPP
# note: exactly 10 nM is not below, so it is 0 (no); use 1 (yes) for IC50 strictly under it

These recorded examples may help you get a feel for the data.
Compound	Group label
COc1ccc(C(c2ccccn2)C2CCN(C(=O)N3CC[C@@H]4OCC(=O)N[C@@H]4C3)CC2)cc1OC (single isomer, unassigned) [Example 119]	0 (no)
O=C1CO[C@H]2CCN(C(=O)N3CC(c4ccc(CC(F)(F)F)cc4)C3)C[C@H]2N1	1 (yes)
CC(Oc1ccc(C(F)(F)F)cc1F)C1CN(C(=O)N2CC[C@@H]3OCC(=O)N[C@@H]3C2)C1 (single isomer, unassigned) [Example 97]	0 (no)
CC(OC1CN(C(=O)N2CC[C@@H]3OCC(=O)N[C@@H]3C2)C1)c1ccc(C(F)(F)F)cc1 (stereo partly drawn) [Example 90]	0 (no)
CC(OC1CN(C(=O)N2CC[C@@H]3OCC(=O)N[C@@H]3C2)C1)c1ccc(C(F)(F)F)cc1 (single isomer, unassigned) [Example 115]	0 (no)
O=C1CO[C@H]2CCN(C(=O)N3CC(c4ccc(C56CC(C5)C6)cc4)C3)C[C@H]2N1	1 (yes)
O=C1CO[C@H]2CCN(C(=O)N3CC(c4ccc(-c5ccc(Cl)cc5Cl)cn4)C3)C[C@H]2N1	1 (yes)
CC1CN(c2cc(C3CN(C(=O)N4CC[C@@H]5OCC(=O)N[C@@H]5C4)C3)ccc2OC(F)(F)F)C1	0 (no)

In the following, a different compound is considered.
Q: Below 10 nM on IC50? Entry "O=C1CO[C@H]2CCN(C(=O)N3CC(c4ccc(OC(F)(F)F)cc4)C3)C[C@H]2N1"
A: 1 (yes)

====

Catalogue of compounds with associated pIC50
Measured target: MAGL (Homo sapiens, UniProt Q99685)
Sequence (Q99685 1-303): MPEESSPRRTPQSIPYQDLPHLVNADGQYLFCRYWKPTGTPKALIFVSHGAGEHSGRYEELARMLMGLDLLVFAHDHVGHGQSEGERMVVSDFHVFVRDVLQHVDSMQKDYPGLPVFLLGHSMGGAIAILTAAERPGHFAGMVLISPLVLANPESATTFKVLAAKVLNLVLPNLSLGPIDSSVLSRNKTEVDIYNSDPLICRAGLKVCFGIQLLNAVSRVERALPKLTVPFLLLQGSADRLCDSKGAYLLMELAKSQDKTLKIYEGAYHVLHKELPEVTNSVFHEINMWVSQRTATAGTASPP
Friendly reminder that pIC50 comes from taking -log10 of the concentration in mol/L.

# example entries with known answers
Compound	Readout label	Recorded value
O=C1CO[C@H]2CCN(C(=O)N3CC(c4ccc(OC(F)(F)F)c(C(F)(F)F)c4)C3)C[C@H]2N1 [Example 243]	pIC50	8.00
COc1ccc(C(c2ccccn2)C2CCN(C(=O)N3CC[C@@H]4OCC(=O)N[C@@H]4C3)CC2)cc1OC (single isomer, unassigned) [Example 118]	pIC50	7.60
O=C1CO[C@H]2CCN(C(=O)N3CC(c4ccc(N5CC(OCC6CC6)C5)cc4)C3)C[C@H]2N1 [Example 212]	pIC50	8.52
Cn1ncc2ccc(C3CN(C(=O)N4CC[C@@H]5OCC(=O)N[C@@H]5C4)C3)cc21 [Example 220]	pIC50	6.38
COc1cc(CC(F)(F)F)ccc1C1CN(C(=O)N2CC[C@@H]3OCC(=O)N[C@@H]3C2)C1 [Example 277]	pIC50	8.70
COc1ccc(C(c2ccc(F)cc2)C2CCN(C(=O)N3CC[C@@H]4OCC(=O)N[C@@H]4C3)CC2)cc1 (single isomer, unassigned) [Example 89]	pIC50	9.22

Q: // fetch MAGL (Homo sapiens, UniProt Q99685) pIC50 for O=C1CO[C@H]2CCN(C(=O)N3CCC(C(c4ccccc4)c4ccc(OCCF)cc4)CC3)C[C@H]2N1 (single isomer, unassigned) [Example 70]
A: 8.40

Q: // fetch MAGL (Homo sapiens, UniProt Q99685) pIC50 for O=C1CO[C@H]2CCN(C(=O)N3CCC(c4ccc(Br)cc4)C3)C[C@H]2N1 (stereo partly shown) [Example 184]
A: 6.84

Q: // fetch MAGL (Homo sapiens, UniProt Q99685) pIC50 for O=C1CO[C@H]2CCN(C(=O)N3CC(c4ccc(N5CCC(C(F)(F)F)C5)cn4)C3)C[C@H]2N1 (single isomer, unassigned) [Example 272]
A: 7.77

Q: // fetch MAGL (Homo sapiens, UniProt Q99685) pIC50 for CC1CN(C(=O)N2CC[C@@H]3OCC(=O)N[C@@H]3C2)CCC1c1ccc(C(C)(F)F)cn1 (single isomer, unassigned) [Example 43]
A: 6.81

Q: // fetch MAGL (Homo sapiens, UniProt Q99685) pIC50 for O=C1CO[C@H]2CCN(C(=O)N3CCC(C(OCC(F)(F)F)c4ccc(F)cc4)CC3)C[C@H]2N1 (single isomer, unassigned) [Example 57]
A: 7.54

Q: // fetch MAGL (Homo sapiens, UniProt Q99685) pIC50 for CS(=O)(=O)c1cccc(C(c2ccncc2)C2CCN(C(=O)N3CC[C@@H]4OCC(=O)N[C@@H]4C3)CC2)c1 (single isomer, unassigned) [Example 178]
A: 6.88

Q: // fetch MAGL (Homo sapiens, UniProt Q99685) pIC50 for Cc1noc(CC(c2ccc(F)cc2)C2CCN(C(=O)N3CC[C@@H]4OCC(=O)N[C@@H]4C3)CC2)n1 (single isomer, unassigned) [Example 59]
A: 7.22

Q: // fetch MAGL (Homo sapiens, UniProt Q99685) pIC50 for CC1CN(c2ccc(C3CN(C(=O)N4CC[C@@H]5OCC(=O)N[C@@H]5C4)C3)cc2Cl)C1 [Example 224]
A: 8.22

Q: // fetch MAGL (Homo sapiens, UniProt Q99685) pIC50 for O=C1CO[C@H]2CCN(C(=O)N3CC(c4ccc(N5CC(OC(F)(F)F)C5)cc4)C3)C[C@H]2N1 [Example 153]
A: 8.70

Q: // fetch MAGL (Homo sapiens, UniProt Q99685) pIC50 for CC(OC1CN(c2ccc(C3CN(C(=O)N4CC[C@@H]5OCC(=O)N[C@@H]5C4)C3)cc2)C1)C(F)(F)F (single isomer, unassigned) [Example 160]
A: 9.00

====

Sequence of the target: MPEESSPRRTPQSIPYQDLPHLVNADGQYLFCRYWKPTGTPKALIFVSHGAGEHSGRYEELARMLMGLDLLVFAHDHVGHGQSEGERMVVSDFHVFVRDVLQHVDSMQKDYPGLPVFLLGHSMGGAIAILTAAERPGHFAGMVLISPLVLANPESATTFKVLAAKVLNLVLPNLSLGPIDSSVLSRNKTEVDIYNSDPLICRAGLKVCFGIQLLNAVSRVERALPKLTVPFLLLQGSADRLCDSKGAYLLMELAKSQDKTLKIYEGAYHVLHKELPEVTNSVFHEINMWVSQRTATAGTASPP
Readout label: IC50 (nM)
Report the figure in nM without appending any unit label.

Q: Would you mind telling me what IC50 value was observed for CS(=O)(=O)c1cccc(C(c2ccncc2)C2CCN(C(=O)N3CC[C@@H]4OCC(=O)N[C@@H]4C3)CC2)c1 (single isomer, unassigned) [Example 177] ?
A: 428

Q: Would you mind telling me what IC50 value was observed for O=C1CO[C@H]2CCN(C(=O)N3CC(c4cccc(Br)c4)C3)C[C@H]2N1 [Example 139] ?
A: 27

Q: Would you mind telling me what IC50 value was observed for CC(OC1CN(c2ccc(C3CN(C(=O)N4CC[C@@H]5OCC(=O)N[C@@H]5C4)C3)cc2)C1)C(F)(F)F (single isomer, unassigned) [Example 161] ?
A: 4

Q: Would you mind telling me what IC50 value was observed for CC(c1ccc(C(F)(F)F)cc1)C1CN(C(=O)N2CC[C@@H]3OCC(=O)N[C@@H]3C2)C1 (stereo partly drawn) [Example 83] ?
A: 114

Q: Would you mind telling me what IC50 value was observed for O=C1CO[C@H]2CCN(C(=O)N3CC(c4ccccc4)C3)C[C@H]2N1 [Example 185] ?
A: 139

Q: Would you mind telling me what IC50 value was observed for O=C1CO[C@H]2CCN(C(=O)N3CC(c4ccc(-c5ccccc5C(F)(F)F)cc4)C3)C[C@H]2N1 [Example 125] ?
A: 0.04
